Measured selectivity ratio values are reported for all entries that follow.
- assay.text: Selectivity index, ratio of CC50 for CHO cells to MIC for multidrug (INH and RIF)-resistant Mycobacterium tuberculosis clinical isolate 1
- Format: toxicity
- assay.context: hamster, read-out: Selectivity Index
I only need the number, thanks.

Worked examples follow.
CCOC(=O)c1c(-c2ccccc2)oc2ccc(OCCN3C(=O)C(=O)c4cc(F)ccc43)cc12; 16
CCOC(=O)c1c(-c2ccccc2)oc2ccc(OCCCN3C(=O)C(=O)c4ccccc43)cc12; 63
CCOC(=O)c1c(-c2ccc(F)cc2)oc2ccc(OCCCN3C(=O)/C(=N/O)c4ccccc43)cc12; 32
CCOC(=O)c1c(-c2ccccc2)oc2ccc(OCCCN3C(=O)C(=O)c4cc(OC)ccc43)cc12; 64
CO[C@H]1/C=C/O[C@@]2(C)Oc3c(C)c(O)c4c(O)c(c(/C=N/N5CCN(C)CC5)c(O)c4c3C2=O)NC(=O)/C(C)=C\C=C\[C@H](C)[C@H](O)[C@@H](C)[C@@H](O)[C@@H](C)[C@H](OC(C)=O)[C@@H]1C; 8

query: Report selectivity ratio for "CCOC(=O)c1c(-c2ccccc2)oc2ccc(OCCCCCCN3C(=O)C(=O)c4ccccc43)cc12" please.
result: 128

query: Report selectivity ratio for "CCO/N=C1\C(=O)N(CCCCCCOc2ccc3oc(-c4ccc(F)cc4)c(C(=O)OCC)c3c2)c2ccc(OC)cc21" please.
result: 128

query: Report selectivity ratio for "CCOC(=O)c1c(-c2ccc(F)cc2)oc2ccc(OCCCN3C(=O)C(=O)c4ccccc43)cc12" please.
result: 256

query: Report selectivity ratio for "CCOC(=O)c1c(-c2ccc(F)cc2)oc2ccc(OCCN3C(=O)C(=O)c4cc(OC)ccc43)cc12" please.
result: 64
